What isoTOP-ABPP ratio Q86W42_C35 was measured for each of the following?
Target: cysteines in MDA-MB-231 and Ramos cells (Homo sapiens)
Sequence (Q86W42 whole entry, the tested form may be a part): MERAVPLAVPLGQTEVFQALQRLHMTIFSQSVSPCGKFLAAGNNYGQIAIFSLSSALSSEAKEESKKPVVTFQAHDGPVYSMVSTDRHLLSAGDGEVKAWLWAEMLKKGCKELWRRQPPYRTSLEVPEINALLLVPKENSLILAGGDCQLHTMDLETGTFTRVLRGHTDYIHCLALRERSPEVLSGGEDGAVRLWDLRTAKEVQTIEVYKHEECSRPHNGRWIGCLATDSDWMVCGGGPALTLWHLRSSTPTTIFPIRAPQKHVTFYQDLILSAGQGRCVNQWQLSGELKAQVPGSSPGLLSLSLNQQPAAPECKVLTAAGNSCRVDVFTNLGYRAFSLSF
Experiment: Competitive isoTOP-ABPP in situ (fragment-treated cells)
Assay type: cell-based
Details: 200 μM, insitu, 231
Respond numerically, and do not add a unit to the figure.

I have this compound here, C=CC(=O)Nc1cc(F)c(N2CCN(C(=O)OC(C)(C)C)CC2)c(F)c1 [compound 38] , and I need its recorded isoTOP-ABPP ratio Q86W42_C35.
0.8

Please report the recorded isoTOP-ABPP ratio Q86W42_C35 for CC1CCc2ccccc2N1C(=O)CCl (stereo not shown) [compound 45] .
20.0

// query isoTOP-ABPP ratio Q86W42_C35 value for entry CC(C)CCOCCNC(=O)CCl [compound 27]
1.3

# get_value(readout='isoTOP-ABPP ratio Q86W42_C35', item= COc1ccccc1OCCNC(=O)CCl [compound 28] )
1.3

// query isoTOP-ABPP ratio Q86W42_C35 value for entry Cc1ccc(C=C(C#N)C(=O)NCCN2CCOCC2)cc1 [compound 41]
1.1

// lookup isoTOP-ABPP ratio Q86W42_C35 for O=C(CCl)Nc1cccc2ncccc12 [compound 51]
1.4

Entry C=CC(=O)N(Cc1cccnc1)c1cc(C(F)(F)F)cc(C(F)(F)F)c1 [compound 31] : reported isoTOP-ABPP ratio Q86W42_C35 = ?
0.5
